Please go through the items and note down their pIC50.
- Test system: L1210, CEM and HeLa cell lines
- assay protocol: Cytostatic activity, average or summary over L1210, CEM and HeLa
- Format: cell-based
- measurement parameters: average of L1210, CEM and HeLa; read-out: Toxicity (IC50) Average
pIC50 (log units): -log10 of the concentration in mol/L.

Ask: What does the data say about its pIC50? Entry: CCCCC#Cc1ccc(NC(=O)CNC(=O)[C@H]2NC(=O)[C@H]3NC(=O)[C@H](NC(=O)[C@@H]4NC(=O)[C@H](CC(N)=O)NC(=O)[C@H](NC(=O)[C@@H](CC(C)C)NC)[C@H](O)c5ccc(c(Cl)c5)Oc5cc4cc(c5O[C@@H]4O[C@H](CO)[C@@H](O)[C@H](O)[C@H]4O[C@H]4C[C@](C)(N)[C@H](O)[C@H](C)O4)Oc4ccc(cc4Cl)[C@H]3O)c3ccc(O)c(c3)-c3c(O)cc(O)cc32)cc1 [Vanc-37]
Reply: 4.28

Ask: And then CCCC#Cc1ccc(NC(=O)CNC(=O)C2NC(=O)C3NC(=O)C(NC(=O)C4NC(=O)C(CC(N)=O)NC(=O)C(NC(=O)C(CC(C)C)NC)C(O)c5ccc(c(Cl)c5)Oc5cc4cc(c5OC4OC(CO)C(O)C(O)C4OC4CC(C)(N)C(O)C(C)O4)Oc4ccc(cc4Cl)C3O)c3ccc(O)c(c3)-c3c(O)cc(O)cc32)cc1 (centres unmarked) [Vanc-68] , what is it?
Reply: 4.41

Every entry's value here was drawn from paper PMC6001238.
